# IC50 listing for each entry below
- system_tested: LCK (Homo sapiens, UniProt P06239)
- Sequence (P06239 whole entry): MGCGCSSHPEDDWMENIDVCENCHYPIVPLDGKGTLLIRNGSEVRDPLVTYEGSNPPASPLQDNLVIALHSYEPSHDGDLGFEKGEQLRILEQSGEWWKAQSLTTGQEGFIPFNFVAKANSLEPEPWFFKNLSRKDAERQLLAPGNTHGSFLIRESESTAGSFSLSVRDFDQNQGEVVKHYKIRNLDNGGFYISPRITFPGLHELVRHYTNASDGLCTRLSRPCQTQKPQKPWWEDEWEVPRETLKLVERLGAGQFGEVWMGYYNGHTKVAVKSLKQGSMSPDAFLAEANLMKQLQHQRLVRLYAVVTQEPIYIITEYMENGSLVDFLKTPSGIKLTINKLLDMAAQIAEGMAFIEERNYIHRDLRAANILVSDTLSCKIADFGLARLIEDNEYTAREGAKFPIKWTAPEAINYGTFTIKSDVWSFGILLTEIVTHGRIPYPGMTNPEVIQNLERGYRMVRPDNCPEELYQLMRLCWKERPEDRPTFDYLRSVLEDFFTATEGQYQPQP
- measurement_protocol: Inhibition of a panel of kinases, in vitro HotSpot kinase assay: LCK
- Assay type: biochemical
- assay_context: D-compounds panel data; 1 μM ATP; read-out: IC50 LCK

# compound, IC50
rows = [
    ("C[C@@H]1[C@H](NC(=O)c2ccc(C3(O)CCCC3)cc2)CCCN1c1cnc(C(N)=O)c(Nc2cnn(C)c2)n1 [Example D-212]", "100 to 1000 nM"),
    ("C[C@@H]1[C@H](NC(=O)c2ccc(C3CC3)cc2F)CCCN1c1cnc(C(N)=O)c(Nc2ccc(CN3CCN(C)CC3)cc2)c1 [Example D-125]", "100 to 1000 nM"),
    ("Cc1cc(Nc2nc(N3CCC[C@@H](NC(=O)c4ccc(C(C)(C)O)cc4)C3)cnc2C(N)=O)sn1 [Example D-158]", "100 to 1000 nM"),
    ("Cn1cc(Nc2nc(N3CCC(F)(F)[C@@H](NC(=O)c4ccc(C5CC5)cc4)C3)cnc2C(N)=O)cn1 [Example D-193]", "> 10000 nM"),
]

Okay, next one:
Prompt: Give its IC50 value. Item: C[C@@H]1[C@H](NC(=O)c2ccc(C3CC3)cc2)CCCN1c1cnc(C(N)=O)c(Nc2ccc(OC3CCN(C4CCCC4)CC3)cc2)n1 [Example D-101]
Response: 10 to 100 nM

---

- system_tested: SRC (Homo sapiens)
- Sequence (P12931 whole entry): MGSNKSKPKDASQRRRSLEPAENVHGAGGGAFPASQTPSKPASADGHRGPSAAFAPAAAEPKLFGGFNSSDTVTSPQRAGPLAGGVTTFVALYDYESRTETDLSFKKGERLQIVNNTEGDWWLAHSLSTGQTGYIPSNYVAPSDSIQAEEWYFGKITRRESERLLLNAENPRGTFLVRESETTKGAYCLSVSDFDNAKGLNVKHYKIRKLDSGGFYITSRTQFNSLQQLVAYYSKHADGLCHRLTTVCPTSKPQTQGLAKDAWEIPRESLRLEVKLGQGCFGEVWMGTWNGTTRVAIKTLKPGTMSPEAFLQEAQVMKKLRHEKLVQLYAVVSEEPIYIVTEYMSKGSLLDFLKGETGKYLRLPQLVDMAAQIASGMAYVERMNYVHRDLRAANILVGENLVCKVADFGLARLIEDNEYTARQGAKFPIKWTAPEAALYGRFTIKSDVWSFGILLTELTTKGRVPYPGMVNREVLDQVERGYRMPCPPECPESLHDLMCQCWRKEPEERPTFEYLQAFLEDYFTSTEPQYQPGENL
- measurement_protocol: Inhibition of a panel of kinases, in vitro HotSpot kinase assay: SRC
- Assay type: biochemical
- assay_context: D-compounds panel data; 1 μM ATP
pIC50: −log10 of the molar value.
# pIC50 listing for each entry below

# compound, readout, reported
measured = [
    ("C[C@@H]1CC[C@H](NC(=O)c2ccc(C3CC3)cc2)CN1c1cnc(C(N)=O)c(Nc2cnn(C)c2)n1 [Example D-145]", "pIC50", "5.00 to 6.00"),
    ("Cn1cc(Nc2nc(N3CCC[C@@H](n4ccc5cc(C6CC6)ccc5c4=O)C3)cnc2C(N)=O)cn1 [Example D-184]", "pIC50", "5.00 to 6.00"),
    ("CC(=O)N1CCC(c2ccc(Nc3nc(N4CCC[C@@H](NC(=O)c5ccc(C6CC6)cc5)[C@H]4C)cnc3C(N)=O)cc2)CC1 [Example D-296]", "pIC50", "7.00 to 8.00"),
]

Okay, next one:
Prompt: Give its pIC50 value. Item: Cc1nc2cc(C(=O)N[C@@H]3CCCN(c4cnc(C(N)=O)c(Nc5cnn(C)c5)n4)[C@@H]3C)ccc2[nH]1 [Example D-261]
Response: 7.00 to 8.00

---

- system_tested: TEC (Homo sapiens, UniProt P42680)
- Sequence (P42680 whole entry): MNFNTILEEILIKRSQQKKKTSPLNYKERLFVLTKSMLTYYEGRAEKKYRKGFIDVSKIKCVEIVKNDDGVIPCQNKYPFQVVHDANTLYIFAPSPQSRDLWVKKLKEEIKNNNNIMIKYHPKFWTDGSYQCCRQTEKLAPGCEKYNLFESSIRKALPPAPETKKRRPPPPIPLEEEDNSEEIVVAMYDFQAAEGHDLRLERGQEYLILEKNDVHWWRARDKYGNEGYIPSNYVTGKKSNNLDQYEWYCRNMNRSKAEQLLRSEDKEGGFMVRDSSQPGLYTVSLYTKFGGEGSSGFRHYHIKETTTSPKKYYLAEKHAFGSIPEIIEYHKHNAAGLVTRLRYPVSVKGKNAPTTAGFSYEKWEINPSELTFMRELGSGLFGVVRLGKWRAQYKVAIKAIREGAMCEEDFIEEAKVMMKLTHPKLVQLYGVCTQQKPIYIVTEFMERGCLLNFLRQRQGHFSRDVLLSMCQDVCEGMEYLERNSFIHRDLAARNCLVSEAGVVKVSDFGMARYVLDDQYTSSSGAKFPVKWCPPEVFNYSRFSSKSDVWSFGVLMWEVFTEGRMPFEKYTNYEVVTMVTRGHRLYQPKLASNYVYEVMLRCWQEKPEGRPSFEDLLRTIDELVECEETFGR
- measurement_protocol: Inhibition of a panel of kinases, in vitro HotSpot kinase assay: TEC
- Assay type: biochemical
- assay_context: D-compounds panel data; 1 μM ATP
pIC50: −log10 of the molar value.
# pIC50 listing for each entry below

Worked examples follow.
# compound, pIC50
measured = [
    ("C[C@@H]1[C@H](NC(=O)c2ccc(C3CC3)cc2F)CCCN1c1cnc(C(N)=O)c(Nc2ccc(N3CCN(C)CC3)nc2)n1 [Example D-13]", "6.00 to 7.00"),
    ("C[C@@H]1[C@H](NC(=O)c2ccc(C3CC3)cc2)CCCN1c1cnc(C(N)=O)c(Nc2cnn(C3CCOCC3)c2)n1 [Example D-274]", "≥ 8.00"),
    ("CCOCCOc1ccc(Nc2nc(N3CCC[C@@H](NC(=O)c4ccc(C5CC5)cc4)[C@H]3C)cnc2C(N)=O)cc1 [Example D-299]", "7.00 to 8.00"),
    ("C[C@@H]1[C@H](N2Cc3cc(C4CC4)ccc3C2=O)CCCN1c1cnc(C(N)=O)c(Nc2cnn(C)c2)n1 [Example D-36]", "≥ 8.00"),
    ("C[C@@H]1[C@H](NC(=O)c2ccc(C3(O)CC3)cc2)CCCN1c1cnc(C(N)=O)c(Nc2cnn(C)c2)n1 [Example D-235]", "≥ 8.00"),
    ("C[C@@H]1[C@H](NC(=O)c2ccc(C3CC3)cc2F)CCCN1c1cnc(C(N)=O)c(Nc2ccc(C3(C)CCN(C4CCC4)CC3)cc2)n1 [Example D-134]", "7.00 to 8.00"),
    ("C[C@@H]1[C@H](NC(=O)c2ccc(C3CC3)cc2)CCCN1c1cnc(C(N)=O)c(Nc2cnn(C3CCN(C)CC3)c2)n1 [Example D-185]", "7.00 to 8.00"),
    ("Cc1cc(Nc2nc(N3CCC[C@@H](NC(=O)c4ccc(C5CC5)cc4F)C3)cnc2C(N)=O)on1 [Example D-2]", "5.00 to 6.00"),
]

Prompt: Give its pIC50 value. Item: C[C@@H]1[C@H](NC(=O)c2ccc(C3CC3)cc2)CCCN1c1cnc(C(N)=O)c(Nc2ccc(N3CCC4(CC3)COC4)cc2)n1 [Example D-99]
Response: ≥ 8.00

Prompt: Give its pIC50 value. Item: C[C@@H]1[C@H](NC(=O)c2ccc(C3CC3)cc2)CCCN1c1cnc(C(N)=O)c(Nc2cnn(CC3CCC(F)(F)CC3)c2)n1 [Example D-321]
Response: 7.00 to 8.00
